Biological target: c-Met ectodomain-Fc fusion (HGFR) (UniProt P08581 P08581:25-932)
Sequence (P08581 25-932, one chain of several): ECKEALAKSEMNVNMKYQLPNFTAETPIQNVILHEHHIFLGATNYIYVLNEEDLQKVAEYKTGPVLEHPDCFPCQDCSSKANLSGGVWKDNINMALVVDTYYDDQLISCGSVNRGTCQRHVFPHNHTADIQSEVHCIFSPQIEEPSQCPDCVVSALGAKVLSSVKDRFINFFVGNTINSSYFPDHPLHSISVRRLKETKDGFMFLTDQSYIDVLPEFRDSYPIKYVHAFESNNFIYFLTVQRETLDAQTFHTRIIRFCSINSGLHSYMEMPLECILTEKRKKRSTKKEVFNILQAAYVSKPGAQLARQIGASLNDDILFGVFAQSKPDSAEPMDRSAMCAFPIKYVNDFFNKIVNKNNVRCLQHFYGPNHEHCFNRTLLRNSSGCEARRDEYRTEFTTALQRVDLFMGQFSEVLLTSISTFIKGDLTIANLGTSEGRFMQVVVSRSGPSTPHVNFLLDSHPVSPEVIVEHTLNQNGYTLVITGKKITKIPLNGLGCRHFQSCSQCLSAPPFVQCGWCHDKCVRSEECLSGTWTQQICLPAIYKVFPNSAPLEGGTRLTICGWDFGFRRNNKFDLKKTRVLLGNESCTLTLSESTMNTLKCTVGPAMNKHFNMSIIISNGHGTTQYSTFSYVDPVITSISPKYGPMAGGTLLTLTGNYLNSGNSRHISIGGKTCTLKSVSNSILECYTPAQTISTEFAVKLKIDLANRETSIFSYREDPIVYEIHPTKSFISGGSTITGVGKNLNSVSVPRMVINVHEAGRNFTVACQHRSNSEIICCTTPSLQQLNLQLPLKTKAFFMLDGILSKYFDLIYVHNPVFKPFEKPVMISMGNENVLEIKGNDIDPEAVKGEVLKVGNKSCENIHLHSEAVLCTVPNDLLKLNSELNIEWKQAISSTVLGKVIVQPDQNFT
Assay: filter; competition vs 32P-trCLN3; PBS pH 7.4, 3 mM MgCl2, tRNA 1 mg/ml, BSA 1 mg/ml, 37 C
Conditions: tags: human IgG1 Fc fusion; His (detected with anti-penta-His); R&D Systems; chain copies: 2; label: biotin; G4
measured_parameter: pIC50
In simple prose, pIC50 is minus the logarithm base ten of a concentration in moles per litre.

Can you look up the measured pIC50 of TGGATGGTAGCTCGGTCGGGGTGGGTGGGTTGGCAAGTCT (ssDNA, 5'-hexylamine coupled Sulfo-SBED (phenyl azide, biotin)) [ABAL-trCLN3] for me?
7.30
